Below, each of the variants is paired with its reported protein stability index value.
B1: CIB1 (parent)
chain: DLSRLVNCLTGEGEDTRLSASEMK

Variants of: B1
Assay: protein stability index of a GFP-peptide fusion (GPS, HEK-293T) (PSI 1-6); higher = more stable;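 further: lentivirally expressed fusions sorted by FACS into six bins by GFP to DsRed ratio, PSI derived from sequencing read proportions per bin multiplied by bin number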
Conditions: c terminus: a fixed tail appended
PARAMETER_MEASURED: protein stability index

> print(dat)
                    seq.text  data.value
 1  DLSRLVNCLTGEGEDTVLSASEMK        2.65
 2  DLSRLVNCLYGEGEDTRLSASEMK        1.99
 3  DLSRLVNCLTGVGEDTRLSASEMK        3.34
 4  DLSRLVNPLTGEGEDTRLSASEMK        4.28
 5  DLSRAVNCLTGEGEDTRLSASEMK        3.99
 6  DLSRLVNALTGEGEDTRLSASEMK        3.09
 7  DLSRLVNCLTGEGEDTRLNASEMK        4.35
 8  DLSRLVNDLTGEGEDTRLSASEMK         4.3
 9  DLSRLQNCLTGEGEDTRLSASEMK        2.64
10  DLSKLVNCLTGEGEDTRLSASEMK        3.12
11  DLSRLVNCLTGEGLDTRLSASEMK        2.27
12  KLSRLVNCLTGEGEDTRLSASEMK        4.18
13  DLSRLVNCLTGEGEDTRLSAYEMK        3.14
14  DLSRLVNCLTGEGEDTRLSASEMY        2.23
15  DLSRLVNCLTGEGEDGRLSASEMK        3.35
16  DLFRLVNCLTGEGEDTRLSASEMK         2.9
17  DLSRLVNCLTGEGEDTRLMASEMK        2.57
18  DLSRLVNCLTGELEDTRLSASEMK        2.53
19  DLSRLVNCLTGEGEDTRLRASEMK         2.6
20  DLSRLVNCLTGEGEVTRLSASEMK        1.54
21  DLSRLVNCTTGEGEDTRLSASEMK        3.02
22  DLSRLVNVLTGEGEDTRLSASEMK        3.27
23  DLSRLVNCLWGEGEDTRLSASEMK        2.48
24  DLSRLRNCLTGEGEDTRLSASEMK        3.94
25  DLSRLVNCLTGEGEDTRLSASEMP        2.67
26  DLGRLVNCLTGEGEDTRLSASEMK        3.72
27  DLSRLVGCLTGEGEDTRLSASEMK        2.74
28  DLSRLVNCLTTEGEDTRLSASEMK         2.6
29  DLSRLPNCLTGEGEDTRLSASEMK        4.84
30  DLSRLVNCLTGEGETTRLSASEMK        2.12
31  DLSRLVECLTGEGEDTRLSASEMK           4
32  DLSYLVNCLTGEGEDTRLSASEMK        2.85
33  DLSRLVNILTGEGEDTRLSASEMK         2.4
34  DLSRLVNCLTGEGEDTRLSASAMK        3.08
35  DLSRLVNCLTGEGEDARLSASEMK        2.46
